These data points were gathered from patent US9902696B2.

target: recombinant human baculovirus-expressed GST-tagged FASN (Homo sapiens, UniProt P49327); construct: GST; test: FASN enzyme activity assay, fluorescence-based detection of CoA with CPM; type: biochemical; settings: 5 nM FASN, 150 μM NADPH, 10 μM acetyl-CoA, 25 μM malonyl-CoA, 90 minutes incubation; read-out: IC50 data for Compounds of Formulae I-V/V(a): Activity
Sequence (P49327 whole entry): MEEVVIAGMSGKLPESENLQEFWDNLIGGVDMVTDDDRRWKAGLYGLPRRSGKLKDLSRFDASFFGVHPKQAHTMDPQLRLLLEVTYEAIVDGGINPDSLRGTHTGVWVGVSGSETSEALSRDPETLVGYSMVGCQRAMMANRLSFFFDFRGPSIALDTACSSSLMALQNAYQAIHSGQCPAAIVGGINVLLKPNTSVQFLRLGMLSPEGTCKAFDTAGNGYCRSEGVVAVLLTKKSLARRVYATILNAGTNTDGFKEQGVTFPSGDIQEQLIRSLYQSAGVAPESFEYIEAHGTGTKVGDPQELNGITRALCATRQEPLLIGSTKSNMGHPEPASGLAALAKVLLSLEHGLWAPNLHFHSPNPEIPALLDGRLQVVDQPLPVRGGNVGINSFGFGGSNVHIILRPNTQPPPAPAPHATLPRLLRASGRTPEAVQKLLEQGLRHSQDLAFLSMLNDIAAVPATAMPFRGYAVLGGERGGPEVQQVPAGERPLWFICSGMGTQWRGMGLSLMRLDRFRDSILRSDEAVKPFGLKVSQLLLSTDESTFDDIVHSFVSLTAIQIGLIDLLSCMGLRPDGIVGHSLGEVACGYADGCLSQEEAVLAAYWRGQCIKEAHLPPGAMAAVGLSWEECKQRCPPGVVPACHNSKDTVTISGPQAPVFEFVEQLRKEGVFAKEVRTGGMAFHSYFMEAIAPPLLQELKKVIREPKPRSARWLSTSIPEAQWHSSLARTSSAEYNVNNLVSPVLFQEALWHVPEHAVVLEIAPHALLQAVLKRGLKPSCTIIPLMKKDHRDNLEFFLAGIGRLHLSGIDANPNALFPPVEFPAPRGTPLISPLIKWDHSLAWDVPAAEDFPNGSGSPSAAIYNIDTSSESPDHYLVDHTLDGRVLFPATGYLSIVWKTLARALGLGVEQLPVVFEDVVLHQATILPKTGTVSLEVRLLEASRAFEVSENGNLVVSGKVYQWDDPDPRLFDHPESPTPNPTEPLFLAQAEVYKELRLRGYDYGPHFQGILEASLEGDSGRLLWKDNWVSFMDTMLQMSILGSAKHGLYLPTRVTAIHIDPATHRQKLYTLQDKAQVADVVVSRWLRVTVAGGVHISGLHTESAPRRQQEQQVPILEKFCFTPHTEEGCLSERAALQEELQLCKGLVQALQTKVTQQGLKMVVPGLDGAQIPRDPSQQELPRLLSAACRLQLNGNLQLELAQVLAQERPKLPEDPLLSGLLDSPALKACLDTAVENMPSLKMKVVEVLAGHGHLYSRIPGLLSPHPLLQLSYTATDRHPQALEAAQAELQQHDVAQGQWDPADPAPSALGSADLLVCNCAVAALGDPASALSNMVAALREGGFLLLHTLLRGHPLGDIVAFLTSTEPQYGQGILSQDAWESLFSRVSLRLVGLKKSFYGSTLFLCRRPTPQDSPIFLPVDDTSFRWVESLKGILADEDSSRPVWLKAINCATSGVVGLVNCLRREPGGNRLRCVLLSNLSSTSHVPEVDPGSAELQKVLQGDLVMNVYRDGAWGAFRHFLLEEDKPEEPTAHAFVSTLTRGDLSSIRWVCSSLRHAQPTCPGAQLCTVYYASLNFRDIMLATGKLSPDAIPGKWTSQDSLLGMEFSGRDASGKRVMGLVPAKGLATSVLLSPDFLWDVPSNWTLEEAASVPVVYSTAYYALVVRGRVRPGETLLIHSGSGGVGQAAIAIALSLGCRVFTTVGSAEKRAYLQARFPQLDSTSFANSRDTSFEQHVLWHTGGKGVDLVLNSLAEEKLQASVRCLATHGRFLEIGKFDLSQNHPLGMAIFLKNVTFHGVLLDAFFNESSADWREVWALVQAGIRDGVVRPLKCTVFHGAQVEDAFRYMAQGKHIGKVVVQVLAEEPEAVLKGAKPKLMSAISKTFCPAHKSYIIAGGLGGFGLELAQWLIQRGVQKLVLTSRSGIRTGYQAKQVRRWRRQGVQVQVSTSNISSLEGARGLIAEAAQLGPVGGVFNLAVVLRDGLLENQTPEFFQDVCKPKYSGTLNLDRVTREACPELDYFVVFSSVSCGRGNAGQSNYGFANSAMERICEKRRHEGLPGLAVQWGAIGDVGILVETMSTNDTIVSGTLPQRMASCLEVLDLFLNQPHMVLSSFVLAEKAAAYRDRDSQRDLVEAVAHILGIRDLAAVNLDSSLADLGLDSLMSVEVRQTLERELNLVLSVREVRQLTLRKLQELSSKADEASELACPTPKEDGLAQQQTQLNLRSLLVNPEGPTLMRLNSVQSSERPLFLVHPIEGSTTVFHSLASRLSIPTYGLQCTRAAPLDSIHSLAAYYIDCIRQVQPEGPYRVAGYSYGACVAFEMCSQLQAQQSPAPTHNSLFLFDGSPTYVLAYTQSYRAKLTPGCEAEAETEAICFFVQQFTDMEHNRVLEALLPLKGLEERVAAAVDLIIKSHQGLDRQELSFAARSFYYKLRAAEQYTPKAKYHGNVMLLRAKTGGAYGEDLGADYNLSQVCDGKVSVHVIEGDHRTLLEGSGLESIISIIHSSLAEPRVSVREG
pIC50: −log10 of the molar value. Structures can show the parent of a compound that is named as a salt.
Property: pIC50

Consider the worked cases shown below.
{"columns": ["Compound", "pIC50"],
 "data": [
  ["CNC(=O)N1CCC(Oc2ccc(-c3ccc4cccnc4c3OC)cc2)CC1 [Example 85]", "6.00 to 7.00"],
  ["COc1c(-c2ccc(OC3CCN(C(=O)[C@H]4CCCO4)CC3)cc2)ccc2cccnc12 [Example 272, TFA salt]", "7.00 to 9.00"],
  ["C[C@H]1CCO[C@H]1C(=O)N1CCC(Oc2ccc(-c3cnc4ccccc4c3)cc2)CC1 (racemic) [Example 154, HCl]", "7.00 to 9.00"],
  ["O=C(C1CC1)N1CCC(Oc2ccc(-c3ccc(Oc4ccccc4)cc3)cc2)CC1 [Example 509]", "5.00 to 6.00"],
  ["CCC(=O)N1CCC(Oc2ccc(-c3cnc4ccccc4c3)cc2C)CC1 [Example 212]", "5.00 to 6.00"],
  ["Cc1c(-c2ccc(OC3CCN(C(=O)C4CCC4)CC3)cc2)cnc2ccccc12 [Example 62]", "7.00 to 9.00"],
  ["COc1cc2cc(-c3ccc(OC4CCN(C(=O)C5CCC5)CC4)cc3)ccc2cn1 [Example 417]", "6.00 to 7.00"],
  ["COc1cc2cc(-c3ccc(OC4CCN(C(=O)[C@H]5CCCO5)CC4)cc3)ccc2cn1 [Example 418]", "7.00 to 9.00"],
  ["CN(C)c1nccc2cc(-c3ccc(OC4CCN(C(=O)[C@H]5CCCO5)CC4)cc3)ccc12 [Example 453, HCl]", "6.00 to 7.00"]
]}

// next entry
Notebook: CCC(=O)N1[C@@H]2CC[C@H]1C[C@H](Oc1ccc(-c3ccc4cccnc4c3C)cc1)C2 [Example 361, HCl] , pIC50 read as 5.00 to 6.00
